# Assay Details: physchem
Classify as follows. Reported pKa greater than or equal to 9: 1. Reported pKa below: 0.

>  <Compound>
COc1ccccc1N1CCN(CCCNc2cc(=O)n(C)c(=O)n2C)CC1

>  <Classification>
0

$$$$
>  <Compound>
NS(=O)(=O)c1cc2c(cc1Cl)N=CNS2(=O)=O [CHLOROTHIAZIDE]

>  <Classification>
0

$$$$
>  <Compound>
Cc1cc2c(s1)Nc1ccccc1N=C2N1CCN(C)CC1

>  <Classification>
0

$$$$
>  <Compound>
CC(C)(C)NCC(O)COc1cccc2c1CC(O)C(O)C2 (stereo not given)

>  <Classification>
1

$$$$
>  <Compound>
COCC(=O)O[C@]1(CCN(C)CCCc2nc3ccccc3[nH]2)CCc2cc(F)ccc2[C@@H]1C(C)C

>  <Classification>
1

$$$$
>  <Compound>
Nc1c(CC(=O)O)cccc1C(=O)c1ccc(Br)cc1

>  <Classification>
0

$$$$
>  <Compound>
CCNC(C)Cc1cccc(C(F)(F)F)c1 (stereo not given)

>  <Classification>
1

$$$$
>  <Compound>
CCOC(=O)c1ncn2c1CN(C)C(=O)c1cc(F)ccc1-2

>  <Classification>
0

$$$$
>  <Compound>
CC(CCc1ccccc1)NCC(O)c1ccc(O)c(C(N)=O)c1 (stereo not given)

>  <Classification>
1

$$$$
>  <Compound>
CC1CCCC(C)N1CCCC(O)(c1ccccc1)c1ccccn1 (stereo not given)

>  <Classification>
1

$$$$
>  <Compound>
CN1CCN(CC(=O)N2c3ccccc3C(=O)Nc3cccnc32)CC1 [PIRENZEPINE]

>  <Classification>
0

$$$$
>  <Compound>
CCC1(c2cccc(O)c2)CCCCN(C)C1 (stereo not given)

>  <Classification>
0

$$$$
>  <Compound>
Cc1ncc2n1-c1ccc(Cl)cc1C(c1ccccc1F)=NC2

>  <Classification>
0

$$$$
>  <Compound>
COc1ccc(C(=O)Nc2ccccc2CCC2CCCCN2C)cc1 (stereo not given) [ENCAINIDE]

>  <Classification>
1

$$$$
>  <Compound>
O=C(O)CCc1nc(-c2ccccc2)c(-c2ccccc2)o1

>  <Classification>
0

$$$$
>  <Compound>
CNC1=Nc2ccc(Cl)cc2C(c2ccccc2)=[N+]([O-])C1 [CHLORDIAZEPOXIDE]

>  <Classification>
0

$$$$
>  <Compound>
COc1cc2nc(N3CCN(C(=O)C4COc5ccccc5O4)CC3)nc(N)c2cc1OC (stereo not given)

>  <Classification>
0

$$$$
>  <Compound>
Nc1cc(-c2ccncc2)c[nH]c1=O

>  <Classification>
0

$$$$
>  <Compound>
CNC[C@H](O)c1ccc(O)c(O)c1 [EPINEPHRINE]

>  <Classification>
1

$$$$
>  <Compound>
Cc1nccn1CC1CCc2c(c3ccccc3n2C)C1=O (stereo not given)

>  <Classification>
0

$$$$
>  <Compound>
CC[C@@H](CO)NCCN[C@@H](CC)CO

>  <Classification>
1

$$$$
>  <Compound>
NC(N)=Nc1nc(CSCCC(N)=NS(N)(=O)=O)cs1

>  <Classification>
0

$$$$
>  <Compound>
CC(C(=O)O)c1ccc(-c2ccccc2)c(F)c1 (stereo not given)

>  <Classification>
0

$$$$
>  <Compound>
O=C(NCCNCC(O)COc1ccc(O)cc1)N1CCOCC1 (stereo not given)

>  <Classification>
0

$$$$
>  <Compound>
CC(C)NCC(O)COc1ccc(CCOCC2CC2)cc1 (stereo not given)

>  <Classification>
1

$$$$
>  <Compound>
OCCN1CCN(CCC=C2c3ccccc3Sc3ccc(C(F)(F)F)cc32)CC1

>  <Classification>
0

$$$$
>  <Compound>
CCCN(CCC)S(=O)(=O)c1ccc(C(=O)O)cc1

>  <Classification>
0

$$$$
>  <Compound>
CN1C(=O)NC(=O)C(C)(C2=CCCCC2)C1=O (stereo not given) [HEXOBARBITAL]

>  <Classification>
0

$$$$

---

# Assay Details: physchem
# Condition Parameters: octanol/water, pH 6.5

>  <Compound>
O=c1[nH]c2ccccc2n1CCCN1CCC(n2c(=O)[nH]c3cc(Cl)ccc32)CC1 [DOMPERIDONE]

>  <logD>
2.83

$$$$
>  <Compound>
C=CCN1CC[C@]23c4c5ccc(O)c4O[C@H]2C(=O)CC[C@@]3(O)[C@H]1C5 [NALOXONE]

>  <logD>
0.64

$$$$
>  <Compound>
CCOC(=O)c1ncn2c1CN(C)C(=O)c1cc(F)ccc1-2 [FLUMAZENIL]

>  <logD>
1.01

$$$$
>  <Compound>
CCC1(C)CC(=O)NC1=O (centres undefined) [ETHOSUXIMIDE]

>  <logD>
-0.33

$$$$

---

# Condition Parameters: octanol/water
Measurement Type: delta logD

>  <Compound>
Cc1cc2c(s1)Nc1ccccc1N=C2N1CCN(C)CC1

>  <Measurement Type>
delta logD

>  <Measurement>
-0.81

$$$$
>  <Compound>
CC(C)COCC(CN(Cc1ccccc1)c1ccccc1)N1CCCC1 (stereo not drawn)

>  <Measurement Type>
delta logD

>  <Measurement>
-0.9

$$$$
>  <Compound>
CC(C)NC[C@H](O)COc1ccc(O)cc1

>  <Measurement Type>
delta logD

>  <Measurement>
-0.89

$$$$
>  <Compound>
O=C(NC1CCN(CCc2c[nH]c3ccccc23)CC1)c1ccccc1

>  <Measurement Type>
delta logD

>  <Measurement>
-0.75

$$$$
>  <Compound>
COc1ccc(Cl)cc1C(=O)NCCc1ccc(S(=O)(=O)NC(=O)NC2CCCCC2)cc1 [GLYBURIDE]

>  <Measurement Type>
delta logD

>  <Measurement>
0.87

$$$$
>  <Compound>
CSc1ccc2c(c1)N(CCC1CCCCN1C)c1ccccc1S2 (stereo not drawn)

>  <Measurement Type>
delta logD

>  <Measurement>
-0.9

$$$$
>  <Compound>
CC(C)NCC(O)COc1cccc2ccccc12 (stereo not drawn)

>  <Measurement Type>
delta logD

>  <Measurement>
-0.9

$$$$
>  <Compound>
OCCN1CCN(CCC=C2c3ccccc3Sc3ccc(C(F)(F)F)cc32)CC1

>  <Measurement Type>
delta logD

>  <Measurement>
-0.83

$$$$
>  <Compound>
CN(C)CCC(c1ccc(Cl)cc1)c1ccccn1 (stereo not drawn)

>  <Measurement Type>
delta logD

>  <Measurement>
-0.89

$$$$
>  <Compound>
COC(=O)Nc1nc2ccc(C(=O)c3ccccc3)cc2[nH]1

>  <Measurement Type>
delta logD

>  <Measurement>
0

$$$$
>  <Compound>
CC(C)(C)NCC(O)c1ccc(O)c(CO)c1 (stereo not drawn)

>  <Measurement Type>
delta logD

>  <Measurement>
-0.9

$$$$
>  <Compound>
COc1ccc(C(=O)Nc2ccccc2CCC2CCCCN2C)cc1 (stereo not drawn) [ENCAINIDE]

>  <Measurement Type>
delta logD

>  <Measurement>
-0.9

$$$$
>  <Compound>
Cc1onc(-c2ccccc2)c1C(=O)N[C@@H]1C(=O)N2[C@@H]1SC(C)(C)[C@@H]2C(=O)O

>  <Measurement Type>
delta logD

>  <Measurement>
0.9

$$$$

---

# Assay Details: physchem
# Condition Parameters: octanol/water, pH 6.5

>  <Compound>
CN1CCC[C@@H]1CCO[C@](C)(c1ccccc1)c1ccc(Cl)cc1 [CLEMASTINE]

>  <logD>
1.65

$$$$
>  <Compound>
CN1C(C(=O)Nc2ccccn2)=C(O)c2sccc2S1(=O)=O [TENOXICAM]

>  <logD>
0.56

$$$$
>  <Compound>
COc1ccc2c(c1)N(C[C@H](C)CN(C)C)c1ccccc1S2 [LEVOMEPROMAZINE]

>  <logD>
1.98

$$$$
>  <Compound>
CN1CCC[C@H]1c1cccnc1 [NICOTINE]

>  <logD>
-0.34

$$$$
>  <Compound>
Cc1cccc(C)c1NC(=O)C(C)N (stereo not drawn) [TOCAINIDE]

>  <logD>
-0.56

$$$$
>  <Compound>
CN(C)CCC=C1c2ccccc2COc2ccccc21 [DOXEPIN]

>  <logD>
1.55

$$$$
>  <Compound>
O=[N+]([O-])C1O[C@H]2[C@H](OC[C@@H]2O)[C@@H]1O (stereo partly drawn)

>  <logD>
-0.4

$$$$
>  <Compound>
COc1ccc(CCNCC(O)COc2cccc(C)c2)cc1OC (stereo not drawn) [BEVANTOLOL]

>  <logD>
1.11

$$$$
>  <Compound>
CC(C)NCC(O)COc1ccc(COCCOC(C)C)cc1 (stereo not drawn) [BISOPROLOL]

>  <logD>
-0.83

$$$$
>  <Compound>
COCC(=O)O[C@]1(CCN(C)CCCc2nc3ccccc3[nH]2)CCc2cc(F)ccc2[C@@H]1C(C)C [MIBEFRADIL]

>  <logD>
1.25

$$$$
>  <Compound>
N#Cc1ccccc1OCC(O)CNCCNC(=O)Cc1ccc(O)cc1 (stereo not drawn) [EPANOLOL]

>  <logD>
-0.4

$$$$
>  <Compound>
CCCNC(=O)NS(=O)(=O)c1ccc(Cl)cc1 [CHLORPROPAMIDE]

>  <logD>
0.76

$$$$
>  <Compound>
Cc1cc2c(s1)Nc1ccccc1N=C2N1CCN(C)CC1 [OLANZAPINE]

>  <logD>
-0.02

$$$$
>  <Compound>
CCCNC1CCc2nc(N)sc2C1 (stereo not drawn)

>  <logD>
-2.9

$$$$
>  <Compound>
O=C(NCC1CCCCN1)c1cc(OCC(F)(F)F)ccc1OCC(F)(F)F (stereo not drawn) [FLECAINIDE]

>  <logD>
0.24

$$$$
>  <Compound>
CC(NCCc1ccc(O)cc1)C(O)c1ccc(O)cc1 (stereo not drawn) [RITODRINE]

>  <logD>
-1

$$$$
>  <Compound>
CC(CN1c2ccccc2Sc2ccccc21)N(C)C (stereo not drawn) [PROMETHAZINE]

>  <logD>
2.21

$$$$
>  <Compound>
CCCC(CCC)C(=O)O [VALPROIC ACID]

>  <logD>
1.04

$$$$
